Below, each of the molecules is paired with its reported % non-allergic individuals with cytokine production in ex-vivo T cell assay IL-17 value.
Tested on: PBMC cells obtained from mite allergic patients and non-allergics
Assay: Ex vivo stimulation of PBMC: cytokine production (IFN-gamma, IL-9, IL-10, IL-17, IL-31)
Type: cell-based, human
Details: non-allergic individuals; IL-17
reportedEndpoint: % non-allergic individuals with cytokine production in ex-vivo T cell assay IL-17

[
  {
    "molecule": "Derf2: major house dust mite allergen, group 2, Dermatophagoides farinae; control (protein, UniProt Q00855 18-146, looked up) Mite group 2 allergen Der f 2: DQVDVKDCANNEIKKVMVDGCHGSDPCIIHRGKPFTLEALFDANQNTKTAKIEIKASLDGLEIDVPGIDTNACHFMKCPLVKGQQYDIKYTWNVPKIAPKSENVVVTVKLIGDNGVLACAIATHGKIRD",
    "obsValue": "67%"
  },
  {
    "molecule": "Derp1: major house dust mite allergen, group 1, Dermatophagoides pteronyssinus; control (protein, UniProt P08176 99-320, looked up) Peptidase 1: TNACSINGNAPAEIDLRQMRTVTPIRMQGGCGSCWAFSGVAATESAYLAYRNQSLDLAEQELVDCASQHGCHGDTIPRGIEYIQHNGVVQESYYRYVAREQSCRRPNAQRFGISNYCQIYPPNVNKIREALAQTHSAIAVIIGIKDLDAFRHYDGRTIIQRDNGYQPNYHAVNIVGYSNAQGVDYWIVRNSWDTNWGDNGYGYFAANIDLMMIEEYPYVVIL",
    "obsValue": "17%"
  },
  {
    "molecule": "A018: house dust mite protein; SEQ ID NO: 5 (Der f), 6 (Der p), 314 (Blo t) (protein) MVKAVVVLKGDPNVSGTIFFEQQDNGPVKVTGSVQGLKPGLHGFHVHEFGDNTNGCTSAGAHYNPLNKTHGAPNDEERHVGDLGNIEANDKGVANVVIEDSLISLTGEKSIVGRSLVVHADPDDLGRGGHELSKTTGNAGGRLVCGVIGVTK",
    "obsValue": "83%"
  }
]
